Entries annotated with measured IC50
molecular target: Polyunsaturated fatty acid 5-lipoxygenase (Homo sapiens); assay: Inhibition of human recombinant 5-LO expressed in Escherichia coli Bl21 (DE3) using arachidonic acid as substrate preincubated for 10 mins measured after 10 mins by RP-HPLC analysis

{"COMPOUND": "COc1cc(/C=C/C(=O)/C=C/c2ccc(O)c(OC)c2)ccc1O", "TARGET_UNDER_TEST": "Polyunsaturated fatty acid 5-lipoxygenase (Homo sapiens)", "IC50 [µM]": 0.8}
{"COMPOUND": "COc1cc(/C=C/C(=O)CC(=O)c2ccc(O)c(OC)c2)ccc1O", "TARGET_UNDER_TEST": "Polyunsaturated fatty acid 5-lipoxygenase (Homo sapiens)", "IC50 [µM]": 2.3}
{"COMPOUND": "COc1cc(/C=C/C(=O)CC(=O)/C=C/c2cc(CC=C(C)C)c(O)c(OC)c2)cc(CC=C(C)C)c1O", "TARGET_UNDER_TEST": "Polyunsaturated fatty acid 5-lipoxygenase (Homo sapiens)", "IC50 [µM]": 0.7}
{"COMPOUND": "COc1cc(CCC(=O)CC(=O)CCc2ccc(O)c(OC)c2)ccc1O [TETRAHYDROCURCUMIN]", "TARGET_UNDER_TEST": "Polyunsaturated fatty acid 5-lipoxygenase (Homo sapiens)", "IC50 [µM]": 3.2}
{"COMPOUND": "COc1cc(/C=C/C(=O)CC(=O)/C=C/c2cc(CCC(C)C)c(O)c(OC)c2)cc(CCC(C)C)c1O", "TARGET_UNDER_TEST": "Polyunsaturated fatty acid 5-lipoxygenase (Homo sapiens)", "IC50 [µM]": 2.8}

---

target: Prostaglandin G/H synthase 1 (Homo sapiens, UniProt P23219); assay: Inhibition of COX1-mediated PGD2 formation in LPS-stimulated human monocytes preincubated for 15 mins before arachidonic acid substrate addition measured after 30 mins by UPLC-MS/MS analysis; type: cell-based
Sequence (P23219 whole entry): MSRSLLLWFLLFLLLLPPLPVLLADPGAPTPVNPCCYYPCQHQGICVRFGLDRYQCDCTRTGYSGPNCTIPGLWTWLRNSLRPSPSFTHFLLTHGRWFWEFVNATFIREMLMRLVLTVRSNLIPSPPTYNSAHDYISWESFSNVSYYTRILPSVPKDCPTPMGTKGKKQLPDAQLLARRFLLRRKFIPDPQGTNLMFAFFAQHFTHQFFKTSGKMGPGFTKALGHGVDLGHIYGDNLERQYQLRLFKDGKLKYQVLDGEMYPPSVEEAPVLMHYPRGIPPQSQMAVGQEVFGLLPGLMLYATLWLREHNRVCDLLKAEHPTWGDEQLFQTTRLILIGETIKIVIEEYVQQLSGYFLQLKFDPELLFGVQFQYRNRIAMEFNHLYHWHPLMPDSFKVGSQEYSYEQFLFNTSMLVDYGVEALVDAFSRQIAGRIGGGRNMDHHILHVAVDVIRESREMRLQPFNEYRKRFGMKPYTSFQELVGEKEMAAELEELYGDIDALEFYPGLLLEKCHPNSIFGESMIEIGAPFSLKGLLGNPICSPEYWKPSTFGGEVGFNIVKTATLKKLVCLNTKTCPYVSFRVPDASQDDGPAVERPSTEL
MEASURED_PARAMETER: IC50

{"COMPOUND_STRING": "COc1cc(/C=C/c2cc(/C=C/c3cc(CC=C(C)C)c(O)c(OC)c3)[nH]n2)cc(CC=C(C)C)c1O", "VALUE_REPORTED": "> 10 µM"}

---

// pIC50 lookup, one value per entry
target: Polyunsaturated fatty acid 5-lipoxygenase (Homo sapiens, UniProt P09917); assay: Inhibition of human recombinant 5-LO expressed in Escherichia coli Bl21 (DE3) using arachidonic acid as substrate preincubated for 10 mins measured after 10 mins by RP-HPLC analysis
Sequence (P09917 whole entry): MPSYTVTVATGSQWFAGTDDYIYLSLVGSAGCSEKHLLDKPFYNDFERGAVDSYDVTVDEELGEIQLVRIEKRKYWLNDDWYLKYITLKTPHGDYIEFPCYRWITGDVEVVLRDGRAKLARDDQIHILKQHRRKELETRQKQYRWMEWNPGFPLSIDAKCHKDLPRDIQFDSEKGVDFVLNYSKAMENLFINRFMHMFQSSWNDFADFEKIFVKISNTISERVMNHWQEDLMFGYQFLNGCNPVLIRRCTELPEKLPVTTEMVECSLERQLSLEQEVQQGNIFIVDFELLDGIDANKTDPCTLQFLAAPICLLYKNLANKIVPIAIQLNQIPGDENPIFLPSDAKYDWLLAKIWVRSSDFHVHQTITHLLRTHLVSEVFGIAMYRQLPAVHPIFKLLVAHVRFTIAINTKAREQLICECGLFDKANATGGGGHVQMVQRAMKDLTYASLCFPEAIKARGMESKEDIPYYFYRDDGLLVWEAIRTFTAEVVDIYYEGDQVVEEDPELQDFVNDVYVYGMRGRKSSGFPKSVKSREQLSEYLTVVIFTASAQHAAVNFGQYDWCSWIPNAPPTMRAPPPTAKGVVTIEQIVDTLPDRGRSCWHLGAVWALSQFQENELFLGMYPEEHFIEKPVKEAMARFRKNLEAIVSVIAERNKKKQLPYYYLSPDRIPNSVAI
pIC50: −log10 of the molar value.

{"COMPOUND_STRING": "COc1cc(/C=C/c2cc(/C=C/c3ccc(O)c(OC)c3)[nH]n2)ccc1O", "TARGET_UNDER_TEST": "Polyunsaturated fatty acid 5-lipoxygenase (Homo sapiens, UniProt P09917)", "pIC50": 7.15}
{"COMPOUND_STRING": "COc1cc(/C=C/C(=O)/C=C/c2cc(F)c(O)c(OC)c2)cc(F)c1O", "TARGET_UNDER_TEST": "Polyunsaturated fatty acid 5-lipoxygenase (Homo sapiens, UniProt P09917)", "pIC50": 6.22}
{"COMPOUND_STRING": "COc1cc(/C=C/c2cc(-c3ccc(O)c(OC)c3)[nH]n2)ccc1O", "TARGET_UNDER_TEST": "Polyunsaturated fatty acid 5-lipoxygenase (Homo sapiens, UniProt P09917)", "pIC50": 7.05}
{"COMPOUND_STRING": "COc1cc(CCC(=O)CC(=O)CCc2cc(CCC(C)C)c(O)c(OC)c2)cc(CCC(C)C)c1O", "TARGET_UNDER_TEST": "Polyunsaturated fatty acid 5-lipoxygenase (Homo sapiens, UniProt P09917)", "pIC50": 6.40}
{"COMPOUND_STRING": "COc1cc(/C=C/C(=O)/C=C/c2cc(CC=C(C)C)c(O)c(OC)c2)cc(CC=C(C)C)c1O", "TARGET_UNDER_TEST": "Polyunsaturated fatty acid 5-lipoxygenase (Homo sapiens, UniProt P09917)", "pIC50": 6.30}
{"COMPOUND_STRING": "COc1cc(/C=C/C(=O)CC(=O)/C=C/c2cc(F)c(O)c(OC)c2)cc(F)c1O", "TARGET_UNDER_TEST": "Polyunsaturated fatty acid 5-lipoxygenase (Homo sapiens, UniProt P09917)", "pIC50": 6.40}
{"COMPOUND_STRING": "COc1cc(/C=C/c2cc(/C=C/c3cc(CC=C(C)C)c(O)c(OC)c3)[nH]n2)cc(CC=C(C)C)c1O", "TARGET_UNDER_TEST": "Polyunsaturated fatty acid 5-lipoxygenase (Homo sapiens, UniProt P09917)", "pIC50": 7.00}

This collection of values is drawn from ChEMBL document CHEMBL3286393.
